Field: MIC. Provide a value for each of the molecules that follow.
System: Escherichia coli
ASSAY TEXT: Antimicrobial activity against Escherichia coli XL1-Blue harboring pLBII-VIM-2 plasmid expressing VIM-2 W87A mutant beta-lactamase by broth microdilution method
Type: functional
Numbers only, in µg/mL.

[
  {
    "QUERY SMILES": "CO/N=C(\\C(=O)N[C@@H]1C(=O)N2C(C(=O)[O-])=C(C[N+]3(C)CCCC3)CS[C@H]12)c1csc(N)n1",
    "SUBJECT OF TEST": "Escherichia coli",
    "MIC / µg/mL": 0.12
  },
  {
    "QUERY SMILES": "CC(=O)OCC1=C(C(=O)O)N2C(=O)[C@@H](NC(=O)Cc3cccs3)[C@H]2SC1",
    "SUBJECT OF TEST": "Escherichia coli",
    "MIC / µg/mL": 16
  },
  {
    "QUERY SMILES": "CO[C@@]1(NC(=O)Cc2cccs2)C(=O)N2C(C(=O)O)=C(COC(N)=O)CS[C@@H]21",
    "SUBJECT OF TEST": "Escherichia coli",
    "MIC / µg/mL": 8
  }
]

Kindly review the next molecule as well.
Challenge: Kindly indicate its recorded MIC. Item: "CC(C)(O/N=C(\C(=O)N[C@@H]1C(=O)N2C(C(=O)[O-])=C(C[n+]3ccccc3)CS[C@H]12)c1csc(N)n1)C(=O)O"
Response given: 0.12

----------
Field: MIC. Provide a value for each of the compounds that follow.
System: Escherichia coli
ASSAY TEXT: Antimicrobial activity against Escherichia coli XL1-Blue harboring pBC-SK plasmid by broth microdilution method
Format: functional
Answers are plain numbers, in µg/mL.

Past entries and their recorded results:
[
  {
    "QUERY SMILES": "CC(=O)OCC1=C(C(=O)O)N2C(=O)[C@@H](NC(=O)Cc3cccs3)[C@H]2SC1",
    "UNITS LABEL": "µg/mL",
    "MIC": 16
  },
  {
    "QUERY SMILES": "CO/N=C(\\C(=O)N[C@@H]1C(=O)N2C(C(=O)O)=C(CSc3nc(=O)c(O)nn3C)CS[C@H]12)c1csc(N)n1",
    "UNITS LABEL": "µg/mL",
    "MIC": 0.12
  }
]

Challenge: Fill: MIC (Escherichia coli) for this compound "CC(C)(O/N=C(\C(=O)N[C@@H]1C(=O)N2C(C(=O)[O-])=C(C[n+]3ccccc3)CS[C@H]12)c1csc(N)n1)C(=O)O"
Response given: 0.12

----------
System: Escherichia coli
ASSAY TEXT: Antimicrobial activity against Escherichia coli XL1-Blue harboring pLBII-VIM-2 plasmid expressing VIM-2 W87A mutant beta-lactamase by broth microdilution method
Type: functional
MEASUREMENT TYPE: MIC

Past entries and their recorded results:
[
  {
    "COMPOUND": "C[C@@H](O)[C@H]1C(=O)N2C(C(=O)O)=C(S[C@@H]3CN[C@H](C(=O)N(C)C)C3)[C@H](C)[C@H]12",
    "MIC": "≤ 0.03 mg/L"
  },
  {
    "COMPOUND": "CO/N=C(\\C(=O)N[C@@H]1C(=O)N2C(C(=O)O)=C(COC(C)=O)CS[C@H]12)c1csc(N)n1",
    "MIC": "0.12 mg/L"
  },
  {
    "COMPOUND": "C[C@H]1[C@H](NC(=O)/C(=N\\OC(C)(C)C(=O)O)c2csc(N)n2)C(=O)N1S(=O)(=O)O",
    "MIC": "0.12 mg/L"
  },
  {
    "COMPOUND": "CCN1CCN(C(=O)N[C@@H](C(=O)N[C@@H]2C(=O)N3[C@@H]2SC(C)(C)[C@@H]3C(=O)O)c2ccccc2)C(=O)C1=O",
    "MIC": "0.5 mg/L"
  },
  {
    "COMPOUND": "CO/N=C(\\C(=O)N[C@@H]1C(=O)N2C(C(=O)O)=C(COC(N)=O)CS[C@H]12)c1ccco1",
    "MIC": "8 mg/L"
  }
]

Answer for every listed entry: what is its MIC? The entries follow.
1. CO/N=C(\C(=O)N[C@@H]1C(=O)N2C(C(=O)O)=C(CSc3nc(=O)c(O)nn3C)CS[C@H]12)c1csc(N)n1
2. C[C@@H](O)[C@H]1C(=O)N2C(C(=O)O)=C(SCCNC=N)C[C@H]12 [IMIPENEM ANHYDROUS]
3. C[C@@H](O)[C@H]1C(=O)N2C(C(=O)O)=C(S[C@@H]3CN[C@H](C(=O)Nc4cccc(C(=O)O)c4)C3)[C@H](C)[C@H]12

Response given:
0.12 mg/L
0.12 mg/L
≤ 0.03 mg/L
